Below is a list of entries, each paired with its recorded inhibition at 10 µM value.
target: NR1C + NR2A (NMDAR1C-NMDAR2A) (Rattus norvegicus); construct: expressed in transfected cells; host or cells: Xenopus laevis oocytes injected with mRNA (1:1 mixture); test: Electrophysiology on recombinant NMDA receptors, NR1C + NR2A, Xenopus laevis oocytes; format: cell-based; details: 10 μM compound; Xenopus laevis oocytes, -80 mV; mean of four to eight oocytes; read-out: Electrophysiology, % block by 10 μM, NR1C + NR2A
Sequence (Q00959 23-1464, other chains not shown): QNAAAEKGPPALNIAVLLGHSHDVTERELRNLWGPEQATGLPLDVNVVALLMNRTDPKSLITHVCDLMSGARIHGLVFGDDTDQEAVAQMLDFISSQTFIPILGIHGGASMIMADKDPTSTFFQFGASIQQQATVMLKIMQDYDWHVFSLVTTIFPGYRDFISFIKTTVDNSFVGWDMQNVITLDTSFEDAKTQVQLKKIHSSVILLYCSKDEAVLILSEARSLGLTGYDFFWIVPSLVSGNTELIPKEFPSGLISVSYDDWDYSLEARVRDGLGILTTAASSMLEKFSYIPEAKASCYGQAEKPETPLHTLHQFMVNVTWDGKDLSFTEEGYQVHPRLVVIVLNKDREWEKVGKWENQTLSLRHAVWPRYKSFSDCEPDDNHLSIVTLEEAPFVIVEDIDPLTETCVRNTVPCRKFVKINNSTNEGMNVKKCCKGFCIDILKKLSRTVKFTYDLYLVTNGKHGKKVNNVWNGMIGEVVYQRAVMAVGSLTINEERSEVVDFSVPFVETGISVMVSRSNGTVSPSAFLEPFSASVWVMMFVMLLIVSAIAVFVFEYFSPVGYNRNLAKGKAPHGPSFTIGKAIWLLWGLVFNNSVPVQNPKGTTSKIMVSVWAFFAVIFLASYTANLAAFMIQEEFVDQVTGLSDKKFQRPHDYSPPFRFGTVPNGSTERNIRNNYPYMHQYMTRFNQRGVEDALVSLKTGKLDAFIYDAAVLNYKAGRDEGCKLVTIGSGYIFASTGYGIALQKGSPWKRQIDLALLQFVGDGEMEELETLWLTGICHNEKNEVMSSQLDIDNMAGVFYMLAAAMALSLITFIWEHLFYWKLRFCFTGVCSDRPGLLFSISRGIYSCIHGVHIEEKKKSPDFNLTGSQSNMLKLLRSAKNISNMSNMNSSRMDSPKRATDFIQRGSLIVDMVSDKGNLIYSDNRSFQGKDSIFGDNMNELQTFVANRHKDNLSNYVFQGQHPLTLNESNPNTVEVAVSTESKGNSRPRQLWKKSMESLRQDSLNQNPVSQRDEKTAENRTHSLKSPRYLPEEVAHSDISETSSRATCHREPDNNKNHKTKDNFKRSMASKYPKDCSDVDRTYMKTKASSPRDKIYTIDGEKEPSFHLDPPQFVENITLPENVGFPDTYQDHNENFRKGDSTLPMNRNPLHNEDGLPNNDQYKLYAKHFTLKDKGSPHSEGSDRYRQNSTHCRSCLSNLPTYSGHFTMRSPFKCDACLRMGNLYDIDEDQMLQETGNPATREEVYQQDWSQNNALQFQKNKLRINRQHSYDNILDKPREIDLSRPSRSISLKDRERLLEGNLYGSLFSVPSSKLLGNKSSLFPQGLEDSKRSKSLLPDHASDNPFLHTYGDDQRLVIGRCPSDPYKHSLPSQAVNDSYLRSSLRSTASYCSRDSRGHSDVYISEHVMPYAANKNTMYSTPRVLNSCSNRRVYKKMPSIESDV
Report only the number, with the unit % understood.

Would you please look over these solved cases?
Query: inhibition at 10 µM; subject: Oc1ccc(CC(O)CN2CCC(O)(Cc3ccc(Cl)cc3)CC2)cc1 (racemic)
19

Query: inhibition at 10 µM; subject: Cc1ccc(CC2(O)CCN(CC(=O)Nc3ccc(O)cc3)CC2)cc1
10

Query: inhibition at 10 µM; subject: Cc1ccc(CC2(O)CCN(CCOc3ccc(O)cc3)CC2)cc1
31

Query: inhibition at 10 µM; subject: Cc1ccc(CC2(O)CCN(CC(O)Cc3ccc(O)cc3)CC2)cc1 (racemic)
10

In the following, a different compound is considered.
Query: inhibition at 10 µM; subject: Cc1ccc(CC2(O)CCN(CCNC(=O)c3ccc(O)cc3)CC2)cc1
8

====

Below is a list of entries, each paired with its recorded inhibition at 0.1 µM value.
biological target: NR1C + NR2B (NMDAR1C-NMDAR2B) (Rattus norvegicus, UniProt P35439+Q00960); construct: expressed in transfected cells; host or cells: Xenopus laevis oocytes injected with mRNA (1:1 mixture); test: Electrophysiology on recombinant NMDA receptors, NR1C + NR2B, Xenopus laevis oocytes; format: cell-based; details: 0.1 μM compound; Xenopus laevis oocytes, -80 mV; mean of four to eight oocytes; read-out: Electrophysiology, % block by 0.1 μM, NR1C + NR2B
Sequence (Q00960 27-1482, other chains not shown): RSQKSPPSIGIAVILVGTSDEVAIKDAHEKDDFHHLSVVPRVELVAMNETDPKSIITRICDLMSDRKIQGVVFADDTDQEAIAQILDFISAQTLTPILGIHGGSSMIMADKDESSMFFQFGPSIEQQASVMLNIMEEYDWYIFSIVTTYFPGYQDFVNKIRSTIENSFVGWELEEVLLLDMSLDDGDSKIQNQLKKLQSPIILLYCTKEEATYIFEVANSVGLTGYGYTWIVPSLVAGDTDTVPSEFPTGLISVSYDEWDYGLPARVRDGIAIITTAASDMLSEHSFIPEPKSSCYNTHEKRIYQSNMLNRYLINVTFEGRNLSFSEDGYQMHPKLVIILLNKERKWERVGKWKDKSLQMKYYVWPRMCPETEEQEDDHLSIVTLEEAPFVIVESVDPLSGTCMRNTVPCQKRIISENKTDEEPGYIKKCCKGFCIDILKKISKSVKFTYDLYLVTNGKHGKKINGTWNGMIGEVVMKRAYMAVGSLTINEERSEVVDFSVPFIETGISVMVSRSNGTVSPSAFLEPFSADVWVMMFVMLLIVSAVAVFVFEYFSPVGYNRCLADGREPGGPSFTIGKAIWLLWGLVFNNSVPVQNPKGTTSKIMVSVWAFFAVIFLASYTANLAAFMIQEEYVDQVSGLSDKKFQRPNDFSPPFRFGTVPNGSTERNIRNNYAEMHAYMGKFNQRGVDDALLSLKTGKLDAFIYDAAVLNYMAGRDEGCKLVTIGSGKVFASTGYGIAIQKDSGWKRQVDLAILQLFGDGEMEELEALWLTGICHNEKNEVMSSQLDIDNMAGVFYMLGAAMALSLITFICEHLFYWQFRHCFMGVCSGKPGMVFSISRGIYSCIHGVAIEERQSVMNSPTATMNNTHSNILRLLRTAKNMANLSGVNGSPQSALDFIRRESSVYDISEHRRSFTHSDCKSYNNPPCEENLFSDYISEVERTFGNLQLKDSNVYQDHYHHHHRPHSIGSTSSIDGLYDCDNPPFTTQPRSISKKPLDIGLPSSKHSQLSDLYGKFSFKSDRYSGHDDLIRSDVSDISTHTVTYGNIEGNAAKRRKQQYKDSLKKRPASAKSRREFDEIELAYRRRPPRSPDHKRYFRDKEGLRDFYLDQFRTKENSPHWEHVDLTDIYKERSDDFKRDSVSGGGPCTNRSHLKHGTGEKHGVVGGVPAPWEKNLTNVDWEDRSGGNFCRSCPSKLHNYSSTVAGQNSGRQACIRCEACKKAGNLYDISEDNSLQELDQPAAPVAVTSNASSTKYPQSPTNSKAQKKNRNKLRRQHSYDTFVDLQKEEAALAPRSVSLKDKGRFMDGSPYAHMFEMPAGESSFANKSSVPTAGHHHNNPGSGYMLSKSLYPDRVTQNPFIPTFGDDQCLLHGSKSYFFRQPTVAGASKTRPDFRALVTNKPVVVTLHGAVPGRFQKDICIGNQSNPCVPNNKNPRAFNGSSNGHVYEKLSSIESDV
Report only the number, with the unit % understood.

Query: inhibition at 0.1 µM; subject: Cc1ccc(CC2(O)CCN(CC(O)Cc3ccc(O)cc3)CC2)cc1 (racemic) [M/31]
89

New cases:
Query: inhibition at 0.1 µM; subject: Cc1ccc(CC2(O)CCN(CCNC(=O)c3ccc(O)cc3)CC2)cc1 [R/37]
42

Query: inhibition at 0.1 µM; subject: Cc1ccc(CC2(O)CCN(CC(=O)Nc3ccc(O)cc3)CC2)cc1 [K/24]
83

Query: inhibition at 0.1 µM; subject: Oc1ccc(CC(O)CN2CCC(O)(Cc3ccc(Cl)cc3)CC2)cc1 (racemic) [N/32]
81

Query: inhibition at 0.1 µM; subject: Cc1ccc(CC2(O)CCN(CCOc3ccc(O)cc3)CC2)cc1 [C/9]
88

====

biological target: 3H-Prazosine binding; test: 3H-Prazosine binding; settings: rat brain membranes (minus cerebellum and medulla oblongata); 0.2 nM 3H-Prazosine; 30 minutes at room temperature, pH 7.4
Structures can show the parent of a compound that is named as a salt.
measurement_label: pIC50
Convention used: pIC50 is expressed as -log10 of the molar concentration.

Query: pIC50; subject: Cc1ccc(CC2(O)CCN(CCCNC(=O)c3ccc(O)cc3)CC2)cc1
5.64

New cases:
Query: pIC50; subject: Oc1ccc(OCCN2CCC(O)(Cc3ccc(F)cc3)CC2)cc1
5.52

Query: pIC50; subject: Oc1ccc(CC(O)CN2CCC(O)(Cc3ccc(Cl)cc3)CC2)cc1 (racemic)
5.04

Query: pIC50; subject: Oc1ccc(OC[C@@H](O)CN2CCC(O)(Cc3ccccc3)CC2)cc1
5.40

Query: pIC50; subject: CS(=O)(=O)Nc1ccc(OCCN2CCC(O)(Cc3ccc(Cl)cc3)CC2)cc1
5.05

Query: pIC50; subject: Cc1ccc(CC2(O)CCN(CCOc3ccc(O)cc3)CC2)cc1
5.46

Query: pIC50; subject: Cc1ccc(CC2(O)CCN(CC(O)Cc3ccc(O)c(F)c3)CC2)cc1 (racemic) [W/94, hydrochloride]
5.18

Query: pIC50; subject: Cc1ccc(CC2(O)CCN(CC(O)COc3ccc(O)cc3)CC2)cc1 (racemic) [A/1, hydrochloride]
5.82
